Origin of values: paper PMC9518259

# tgt: hCA I (Homo sapiens)
# Construct: gene CA1
# Sequence (P00915 2-261): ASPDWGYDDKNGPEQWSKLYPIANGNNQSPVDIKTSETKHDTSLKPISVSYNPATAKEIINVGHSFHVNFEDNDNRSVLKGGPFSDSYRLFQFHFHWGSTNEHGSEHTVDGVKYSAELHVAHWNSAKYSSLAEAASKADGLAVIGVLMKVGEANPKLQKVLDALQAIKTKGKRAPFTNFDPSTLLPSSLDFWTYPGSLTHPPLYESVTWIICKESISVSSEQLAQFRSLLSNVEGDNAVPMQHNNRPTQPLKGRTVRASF
# measurement_protocol: stopped-flow CO2 hydrase assay
# Assay type: biochemical
property: Ki (nM)
# unit: nM | format: bare number

*Q* Looking for the measured Ki of NS(=O)(=O)c1ccccc1NC(=O)Nc1nc2ccccc2s1 , can you help?
*A* 12600

*Q* So what's the measured Ki for this one? NS(=O)(=O)c1ccc(NC(=O)Nc2nc3ccccc3s2)cc1
*A* 362

*Q* // returns reported Ki for input NS(=O)(=O)c1ccc(CNC(=O)Nc2nc3ccccc3s2)cc1
*A* 946

*Q* Query (compound): NS(=O)(=O)c1ccc(CCNC(=O)Nc2nc3ccccc3s2)cc1 ; field requested: Ki
*A* 61.5

*Q* For the compound shown here, O=C(Nc1ccc(C(=O)O)cc1)Nc1nc2ccccc2s1 [14c] , give the reported Ki.
*A* 11800

*Q* Param item = NS(=O)(=O)c1cccc(NC(=O)Nc2nc3ccccc3s2)c1 ; retrieve measured Ki.
*A* 4040

*Q* Given the compound O=C(Nc1cccc(C(=O)O)c1)Nc1nc2ccccc2s1 [14b] , what is its reported Ki?
*A* 82800

*Q* Bench note: what Ki did O=C(Nc1nc2ccccc2s1)Nc1ccccc1C(=O)O [14a] show?
*A* 68100

----------
# measurement_protocol: stopped-flow CO2 hydrase assay
# Assay type: biochemical, Homo sapiens
# run_conditions: read-out: KI (nM)^a / hCA I
property: Ki

*Q* Tell me the measured Ki of Cc1noc(NS(=O)(=O)c2ccc(NC(=O)Nc3nc4ccccc4s3)cc2)c1C [16b] , please.
*A* > 100000 nM

----------
# tgt: hCA IX (Homo sapiens)
# Construct: gene CA9
# measurement_protocol: stopped-flow CO2 hydrase assay
# Format: biochemical
# run_conditions: read-out: KI (nM)^a / hCA IX
Hi! Could you tag entries with Ki below 70 nM as 1.0, and those at or above as 0.0? Much appreciated.

*Q* Hello, is Ki of the following compound strictly smaller than 70 nM? O=C(Nc1ccc(S(=O)(=O)Nc2nccs2)cc1)Nc1nc2ccccc2s1 [16a]
*A* 0.0

*Q* # TODO verify Ki < 70 nM strictly for this compound: O=C(Nc1ccc(C(=O)O)cc1)Nc1nc2ccccc2s1 [14c]
*A* 0.0

*Q* Check if Ki falls below 70 nM for NS(=O)(=O)c1ccc(CCNC(=O)Nc2nc3ccccc3s2)cc1 .
*A* 1.0

*Q* For NS(=O)(=O)c1ccc(CNC(=O)Nc2nc3ccccc3s2)cc1 , is the recorded Ki below the cut-off of 70 nM?
*A* 1.0

*Q* Lab note: Ki threshold 70 nM. Does this compound come in strictly under it? NS(=O)(=O)c1ccc(NC(=O)Nc2nc3ccccc3s2)cc1
*A* 1.0

*Q* Say whether its Ki is strictly beneath 70 nM. Entry: NS(=O)(=O)c1ccccc1NC(=O)Nc1nc2ccccc2s1
*A* 1.0

*Q* State whether 70 nM exceeds Ki recorded for NS(=O)(=O)c1cccc(NC(=O)Nc2nc3ccccc3s2)c1 .
*A* 1.0

*Q* Is Ki of O=C(Nc1nc2ccccc2s1)Nc1ccccc1C(=O)O [14a] strictly below 70 nM?
*A* 0.0

*Q* Does the reported Ki of the following compound sit strictly below 70 nM? O=C(Nc1cccc(C(=O)O)c1)Nc1nc2ccccc2s1 [14b]
*A* 0.0

----------
# tgt: hCA IX (Homo sapiens, UniProt Q16790)
# Construct: gene CA9
# measurement_protocol: stopped-flow CO2 hydrase assay
# Type: biochemical
# run_conditions: read-out: KI (nM)^a / hCA I
property: Ki

*Q* Hi! What's the reported Ki for Cc1noc(NS(=O)(=O)c2ccc(NC(=O)Nc3nc4ccccc4s3)cc2)c1C [16b] on hCA IX (Homo sapiens, UniProt Q16790)?
*A* > 100000 nM

----------
# tgt: hCA XII (Homo sapiens)
# Construct: gene CA12
# Sequence (O43570 25-354): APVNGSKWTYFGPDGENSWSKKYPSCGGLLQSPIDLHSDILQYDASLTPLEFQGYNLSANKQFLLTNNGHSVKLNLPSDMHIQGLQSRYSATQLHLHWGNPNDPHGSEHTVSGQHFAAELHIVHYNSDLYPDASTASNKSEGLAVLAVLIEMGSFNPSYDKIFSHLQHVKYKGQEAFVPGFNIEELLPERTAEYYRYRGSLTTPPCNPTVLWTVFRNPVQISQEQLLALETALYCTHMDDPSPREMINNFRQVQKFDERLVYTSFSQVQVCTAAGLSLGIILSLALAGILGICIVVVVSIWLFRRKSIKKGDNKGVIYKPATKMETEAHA
# measurement_protocol: stopped-flow CO2 hydrase assay
# Assay type: biochemical
property: Ki (nM)
State the answer as a number, implicitly in nM.

*Q* Fill blank: measured Ki of the compound O=C(Nc1cccc(C(=O)O)c1)Nc1nc2ccccc2s1 [14b] is ____.
*A* 9140

*Q* If you can, please state the reported Ki value of NS(=O)(=O)c1ccccc1NC(=O)Nc1nc2ccccc2s1 .
*A* 41.2

*Q* Given the compound O=C(Nc1nc2ccccc2s1)Nc1ccccc1C(=O)O [14a] , what is its reported Ki?
*A* 39900

*Q* Fill in the blank: the reported Ki of O=C(Nc1ccc(S(=O)(=O)Nc2nccs2)cc1)Nc1nc2ccccc2s1 [16a] is ____.
*A* 32500

*Q* Endpoint output: Ki of NS(=O)(=O)c1ccc(CCNC(=O)Nc2nc3ccccc3s2)cc1 . Value?
*A* 34.7

*Q* # Ki lookup, item NS(=O)(=O)c1cccc(NC(=O)Nc2nc3ccccc3s2)c1
*A* 57.5

*Q* I would be grateful if you could share the reported Ki for O=C(Nc1ccc(C(=O)O)cc1)Nc1nc2ccccc2s1 [14c] .
*A* 8540

*Q* Returns the measured Ki for the input compound. Input: NS(=O)(=O)c1ccc(CNC(=O)Nc2nc3ccccc3s2)cc1
*A* 51.2

*Q* Field request: Ki | item: NS(=O)(=O)c1ccc(NC(=O)Nc2nc3ccccc3s2)cc1
*A* 29.3

----------
# tgt: hCA II (Homo sapiens, UniProt P00918)
# Construct: gene CA2
# measurement_protocol: stopped-flow CO2 hydrase assay
# Format: biochemical
property: Ki (nM)
Supply the numeric figure in nM, leaving out any unit text.

*Q* Form field: reported Ki of O=C(Nc1nc2ccccc2s1)Nc1ccccc1C(=O)O [14a]
*A* 75900

*Q* What measured Ki goes with NS(=O)(=O)c1cccc(NC(=O)Nc2nc3ccccc3s2)c1 ?
*A* 653

*Q* Could you tell me which Ki is on file for NS(=O)(=O)c1ccccc1NC(=O)Nc1nc2ccccc2s1 ?
*A* 785

*Q* Which Ki value is on record for NS(=O)(=O)c1ccc(NC(=O)Nc2nc3ccccc3s2)cc1 ?
*A* 54.1

*Q* What measured Ki goes with O=C(Nc1ccc(C(=O)O)cc1)Nc1nc2ccccc2s1 [14c] ?
*A* 9470

*Q* Give the measured Ki of NS(=O)(=O)c1ccc(CNC(=O)Nc2nc3ccccc3s2)cc1 .
*A* 204

*Q* GET /values?readout=Ki&item= O=C(Nc1cccc(C(=O)O)c1)Nc1nc2ccccc2s1 [14b]
*A* 94100

*Q* Look at this molecule and give its reported Ki. NS(=O)(=O)c1ccc(CCNC(=O)Nc2nc3ccccc3s2)cc1
*A* 28.5
